Target: Gamma-aminobutyric acid receptor subunit alpha-1 (Homo sapiens)
Test: Selectivity interaction (GPCR panel (PDSP screen)) EUB0000719a GABRA1

{"Molecule": "CN1C(=O)[C@@H](N2CCc3cn(Cc4ccccc4)nc3C2=O)COc2ccccc21 [TP-030-1]", "Ki (nM)": 375}

* * *

Target: Protein AF-9 (Homo sapiens)

{"Mol": "CN(C)C(=O)c1ccc(-c2cc(C(=O)N[C@@H]3CCc4ccccc43)no2)cc1O", "Measurement Units": "nM", "Kd": 110}

* * *

Target: Histamine H1 receptor (Homo sapiens)
Assay: Selectivity interaction (Receptor panel (Novartis) ) EUB0000164c HRH1
pIC50: −log10 of the molar value.

{"Mol": "CC(C)NC(=O)N1CC[C@H](NC2=Nc3cc(F)ccc3N(CC(F)F)c3ccc(Cl)cc32)C1", "pIC50": 4.89}

* * *

Target: NT-3 growth factor receptor (Homo sapiens)
Assay: Selectivity interaction (Z’-LYTE assay (SelectScreen Invitrogen)) EUB0000690a NTRK3
pKi: −log10 of the molar value.

{"Mol": "C[C@H]1Oc2cc(cnc2N)-c2c(nn(C)c2C#N)CN(C)C(=O)c2ccc(F)cc21", "pKi": 7.34}

* * *

Target: Serine/threonine-protein kinase PLK3 (Homo sapiens, UniProt Q9H4B4)
Assay: Selectivity interaction (Enzymatic assay) EUB0000624a PLK3
pIC50: −log10 of the molar value.
Measured Property: pIC50

{"Molecule": "CCOc1ccn(-c2ccc(F)cc2)c(=O)c1C(=O)Nc1ccc(Oc2ccnc(N)c2Cl)c(F)c1 [BMS-777607]", "Measured Property": "pIC50", "Result": "< 5.70"}

* * *

Biological target: UniProt Q9NR22
Test: Selectivity interaction (Methyltransferase panel) EUB0000196bCl PRMT8
pEC50: −log10 of the molar value.
Measured Property: pEC50

{"Mol": "O=C([C@@H](Cc1cccc(C(F)(F)F)c1)NS(=O)(=O)c1cc(F)c2c(c1)CCNC2)N1CCCC1", "Measured Property": "pEC50", "Result": "< 5.00"}

* * *

Target: Alpha-2A adrenergic receptor (Homo sapiens)
Sequence (P08913 whole entry): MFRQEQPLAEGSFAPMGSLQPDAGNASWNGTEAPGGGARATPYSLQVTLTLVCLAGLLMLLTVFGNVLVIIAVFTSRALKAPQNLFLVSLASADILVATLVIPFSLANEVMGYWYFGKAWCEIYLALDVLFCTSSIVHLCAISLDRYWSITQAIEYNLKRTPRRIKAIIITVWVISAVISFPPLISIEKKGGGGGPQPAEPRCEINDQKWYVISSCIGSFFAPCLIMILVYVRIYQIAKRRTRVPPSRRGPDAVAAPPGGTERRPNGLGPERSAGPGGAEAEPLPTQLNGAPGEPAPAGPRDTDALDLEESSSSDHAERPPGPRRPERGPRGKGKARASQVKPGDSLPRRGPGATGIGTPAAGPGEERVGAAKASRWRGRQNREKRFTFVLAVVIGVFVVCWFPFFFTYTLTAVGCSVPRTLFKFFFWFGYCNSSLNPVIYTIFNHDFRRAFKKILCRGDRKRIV
Test: Selectivity interaction (GPCR panel (PDSP screen)) EUB0000327a ADRA2A
pKi: −log10 of the molar value.

{"Compound": "O=C(NNS(=O)(=O)c1ccccc1)c1cc(-c2ccnnc2)ccc1F [WM-2474]", "pKi": "< 5.00"}

* * *

Molecular target: Tyrosine-protein kinase Blk (Homo sapiens)
Assay: Selectivity interaction (Z’-LYTE assay) EUB0000638a BLK
pIC50: −log10 of the molar value.

{"Compound": "CC#CC(=O)N1CCC[C@H]1c1nc(-c2ccc(C(=O)Nc3ccccn3)cc2)c2c(N)nccn12 [ACALABRUTINIB]", "pIC50": "< 5.00"}

* * *

Molecular target: D(3) dopamine receptor (Homo sapiens)
Sequence (P35462 whole entry): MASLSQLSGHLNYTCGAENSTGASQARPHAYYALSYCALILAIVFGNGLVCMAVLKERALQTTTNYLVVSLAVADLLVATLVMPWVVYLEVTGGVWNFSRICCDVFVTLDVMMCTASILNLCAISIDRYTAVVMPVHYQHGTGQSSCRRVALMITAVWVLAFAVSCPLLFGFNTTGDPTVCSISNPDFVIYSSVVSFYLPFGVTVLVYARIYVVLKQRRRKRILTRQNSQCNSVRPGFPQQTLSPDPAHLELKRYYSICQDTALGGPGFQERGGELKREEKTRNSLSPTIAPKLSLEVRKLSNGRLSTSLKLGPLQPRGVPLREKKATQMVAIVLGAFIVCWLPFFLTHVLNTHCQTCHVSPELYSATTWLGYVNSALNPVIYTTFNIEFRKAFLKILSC
Assay: Selectivity interaction (GPCR panel (PDSP screen)) EUB0000746a DRD3
pKi: −log10 of the molar value.

{"Mol": "O=C(NS(=O)(=O)c1ccc(NCC2CCOCC2)c([N+](=O)[O-])c1)c1ccc(N2CCN(Cc3ccc(C(F)(F)F)cc3-c3ccc(Cl)cc3)CC2)cc1Oc1cnc2[nH]ccc2c1", "pKi": "< 5.00"}

* * *

Target: Protein-tyrosine kinase 2-beta (Homo sapiens, UniProt Q14289)
Assay: Selectivity interaction (Z’-LYTE assay (SelectScreen Invitrogen)) EUB0000690a PTK2B
Measured Property: Ki (nM)

{"Compound": "C[C@H]1Oc2cc(cnc2N)-c2c(nn(C)c2C#N)CN(C)C(=O)c2ccc(F)cc21 [LORLATINIB]", "Result Number": 14}

* * *

Target: Cannabinoid receptor 1 (Homo sapiens, UniProt P21554)
Sequence (P21554 whole entry): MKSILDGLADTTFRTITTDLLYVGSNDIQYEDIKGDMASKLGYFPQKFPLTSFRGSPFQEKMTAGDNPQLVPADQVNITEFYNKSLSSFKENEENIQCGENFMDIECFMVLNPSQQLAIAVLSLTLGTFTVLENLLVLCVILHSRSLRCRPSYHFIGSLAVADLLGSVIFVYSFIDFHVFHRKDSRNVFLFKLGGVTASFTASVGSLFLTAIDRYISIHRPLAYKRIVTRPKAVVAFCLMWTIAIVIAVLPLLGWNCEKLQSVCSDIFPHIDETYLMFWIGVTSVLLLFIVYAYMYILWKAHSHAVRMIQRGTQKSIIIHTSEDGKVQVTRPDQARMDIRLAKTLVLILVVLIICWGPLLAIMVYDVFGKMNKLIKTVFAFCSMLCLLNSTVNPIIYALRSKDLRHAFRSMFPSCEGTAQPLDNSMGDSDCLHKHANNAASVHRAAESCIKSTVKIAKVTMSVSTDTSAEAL
Test: Selectivity interaction (CNR1 functional assay (GTPyS binding)) EUB0000291b CNR1
Measured Property: IC50 (µM)

{"Mol": "O=C(N1CCS(=O)(=O)CC1)N1C[C@H](c2ccc(OC(F)(F)F)cc2)C[C@H](c2nc(C3CC3)no2)C1", "Target Or System": "Cannabinoid receptor 1 (Homo sapiens, UniProt P21554)", "Result Number": 10.6}

* * *

Target: UniProt:P09237
Sequence (P09237 whole entry): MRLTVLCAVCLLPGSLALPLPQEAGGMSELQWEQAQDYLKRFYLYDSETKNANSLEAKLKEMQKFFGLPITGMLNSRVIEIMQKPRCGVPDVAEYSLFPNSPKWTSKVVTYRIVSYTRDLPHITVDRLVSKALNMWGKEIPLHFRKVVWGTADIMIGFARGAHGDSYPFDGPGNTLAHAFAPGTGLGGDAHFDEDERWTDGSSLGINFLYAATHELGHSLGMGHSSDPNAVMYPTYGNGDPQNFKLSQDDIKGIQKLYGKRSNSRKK
Assay: Selectivity interaction (MMPs panel (FRET assay)) EUB0000730a MMP7
pIC50: −log10 of the molar value.

{"Molecule": "CCOC(=O)c1cc2cc(-c3cc(C(=O)NCc4ccc(C(=O)O)cc4)nn3C)ccc2[nH]1 [BI 4394]", "pIC50": "< 4.66"}

* * *

Molecular target: Serine/threonine-protein kinase 16 (Homo sapiens, UniProt O75716)
Sequence (O75716 whole entry): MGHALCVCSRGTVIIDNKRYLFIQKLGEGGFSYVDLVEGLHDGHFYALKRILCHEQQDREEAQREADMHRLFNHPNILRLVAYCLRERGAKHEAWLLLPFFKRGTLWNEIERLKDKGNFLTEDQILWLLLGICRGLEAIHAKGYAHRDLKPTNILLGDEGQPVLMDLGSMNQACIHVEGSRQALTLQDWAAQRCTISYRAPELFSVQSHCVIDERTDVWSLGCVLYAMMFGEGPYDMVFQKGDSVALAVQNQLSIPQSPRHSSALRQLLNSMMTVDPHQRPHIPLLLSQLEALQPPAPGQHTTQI
Assay: Selectivity interaction (NanoBRET assay (HEK293T cells)) EUB0000724a STK16
pIC50: −log10 of the molar value.
Measured Property: pIC50

{"Mol": "COc1cc(Nc2nccc(-c3cnn4nc(OC)ccc34)n2)cc(C(F)(F)F)c1", "Target Or System": "Serine/threonine-protein kinase 16 (Homo sapiens, UniProt O75716)", "Result Number": 6.78}

* * *

Molecular target: cAMP-dependent protein kinase catalytic subunit alpha (Homo sapiens)
Assay: Selectivity interaction (Enzymatic assay) EUB0000624a PRKACA
Measured Property: IC50 (nM)

{"Mol": "CCOc1ccn(-c2ccc(F)cc2)c(=O)c1C(=O)Nc1ccc(Oc2ccnc(N)c2Cl)c(F)c1", "Target Or System": "cAMP-dependent protein kinase catalytic subunit alpha (Homo sapiens)", "Measurement Units": "nM", "Result Number": 550}

* * *

Biological target: Epidermal growth factor receptor (Homo sapiens)
Sequence (P00533 whole entry): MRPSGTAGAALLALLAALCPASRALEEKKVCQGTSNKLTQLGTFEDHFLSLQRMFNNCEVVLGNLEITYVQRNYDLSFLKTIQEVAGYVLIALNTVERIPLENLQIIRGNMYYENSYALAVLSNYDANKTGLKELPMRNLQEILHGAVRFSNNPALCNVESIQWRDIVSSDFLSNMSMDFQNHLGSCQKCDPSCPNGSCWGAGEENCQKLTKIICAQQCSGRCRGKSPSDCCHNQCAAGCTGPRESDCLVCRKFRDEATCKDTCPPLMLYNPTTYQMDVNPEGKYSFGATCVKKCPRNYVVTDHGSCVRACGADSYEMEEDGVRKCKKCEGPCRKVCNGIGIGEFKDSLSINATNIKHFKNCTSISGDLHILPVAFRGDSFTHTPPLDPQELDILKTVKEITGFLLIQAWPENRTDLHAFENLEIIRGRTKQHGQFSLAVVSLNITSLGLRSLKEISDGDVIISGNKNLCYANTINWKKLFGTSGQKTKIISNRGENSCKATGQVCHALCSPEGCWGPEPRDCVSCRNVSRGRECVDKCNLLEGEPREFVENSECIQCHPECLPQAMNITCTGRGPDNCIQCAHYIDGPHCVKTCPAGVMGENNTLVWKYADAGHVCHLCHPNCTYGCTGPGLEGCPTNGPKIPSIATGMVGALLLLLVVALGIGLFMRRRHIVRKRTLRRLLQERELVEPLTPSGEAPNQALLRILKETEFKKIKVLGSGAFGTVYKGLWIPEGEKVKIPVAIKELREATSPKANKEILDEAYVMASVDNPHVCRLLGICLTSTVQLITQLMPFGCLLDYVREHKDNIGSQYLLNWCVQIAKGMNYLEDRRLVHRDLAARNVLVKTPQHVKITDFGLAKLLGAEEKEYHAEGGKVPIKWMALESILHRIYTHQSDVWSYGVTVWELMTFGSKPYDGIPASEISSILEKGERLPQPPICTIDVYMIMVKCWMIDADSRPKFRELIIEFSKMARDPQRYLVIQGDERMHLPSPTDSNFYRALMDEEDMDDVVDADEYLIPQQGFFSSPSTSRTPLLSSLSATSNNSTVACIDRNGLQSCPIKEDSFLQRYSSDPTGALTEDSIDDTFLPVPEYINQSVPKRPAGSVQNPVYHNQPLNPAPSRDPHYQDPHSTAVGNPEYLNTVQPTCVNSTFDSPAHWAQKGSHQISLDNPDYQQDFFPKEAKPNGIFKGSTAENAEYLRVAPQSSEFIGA
Assay: Selectivity interaction (MSD Pharma/Taiwan screen (enzymes and receptors) ) EUB0000296b EGFR
Measured Property: IC50 (µM)

{"Mol": "CC(=O)Nc1c(C(C)=O)c(=O)n(C)c2nc(-c3ccc(Cl)cc3Cl)c(-c3ccc(Cl)cc3)cc12", "Measured Property": "IC50", "Result Number": 3.26}

* * *

Biological target: YEATS domain-containing protein 4 (Homo sapiens, UniProt O95619)
Assay: Selectivity interaction (HTRF-based inhibition assay) EUB0000732a YEATS4
pIC50: −log10 of the molar value.
Measured Property: pIC50

{"Mol": "CN(C)C(=O)c1ccc(-c2cc(C(=O)N(C)C3CCCC3)no2)cc1O", "Target Or System": "YEATS domain-containing protein 4 (Homo sapiens, UniProt O95619)", "Result": "< 4.52"}

* * *

Target: Non-receptor tyrosine-protein kinase TYK2 (Homo sapiens, UniProt P29597)
Sequence (P29597 whole entry): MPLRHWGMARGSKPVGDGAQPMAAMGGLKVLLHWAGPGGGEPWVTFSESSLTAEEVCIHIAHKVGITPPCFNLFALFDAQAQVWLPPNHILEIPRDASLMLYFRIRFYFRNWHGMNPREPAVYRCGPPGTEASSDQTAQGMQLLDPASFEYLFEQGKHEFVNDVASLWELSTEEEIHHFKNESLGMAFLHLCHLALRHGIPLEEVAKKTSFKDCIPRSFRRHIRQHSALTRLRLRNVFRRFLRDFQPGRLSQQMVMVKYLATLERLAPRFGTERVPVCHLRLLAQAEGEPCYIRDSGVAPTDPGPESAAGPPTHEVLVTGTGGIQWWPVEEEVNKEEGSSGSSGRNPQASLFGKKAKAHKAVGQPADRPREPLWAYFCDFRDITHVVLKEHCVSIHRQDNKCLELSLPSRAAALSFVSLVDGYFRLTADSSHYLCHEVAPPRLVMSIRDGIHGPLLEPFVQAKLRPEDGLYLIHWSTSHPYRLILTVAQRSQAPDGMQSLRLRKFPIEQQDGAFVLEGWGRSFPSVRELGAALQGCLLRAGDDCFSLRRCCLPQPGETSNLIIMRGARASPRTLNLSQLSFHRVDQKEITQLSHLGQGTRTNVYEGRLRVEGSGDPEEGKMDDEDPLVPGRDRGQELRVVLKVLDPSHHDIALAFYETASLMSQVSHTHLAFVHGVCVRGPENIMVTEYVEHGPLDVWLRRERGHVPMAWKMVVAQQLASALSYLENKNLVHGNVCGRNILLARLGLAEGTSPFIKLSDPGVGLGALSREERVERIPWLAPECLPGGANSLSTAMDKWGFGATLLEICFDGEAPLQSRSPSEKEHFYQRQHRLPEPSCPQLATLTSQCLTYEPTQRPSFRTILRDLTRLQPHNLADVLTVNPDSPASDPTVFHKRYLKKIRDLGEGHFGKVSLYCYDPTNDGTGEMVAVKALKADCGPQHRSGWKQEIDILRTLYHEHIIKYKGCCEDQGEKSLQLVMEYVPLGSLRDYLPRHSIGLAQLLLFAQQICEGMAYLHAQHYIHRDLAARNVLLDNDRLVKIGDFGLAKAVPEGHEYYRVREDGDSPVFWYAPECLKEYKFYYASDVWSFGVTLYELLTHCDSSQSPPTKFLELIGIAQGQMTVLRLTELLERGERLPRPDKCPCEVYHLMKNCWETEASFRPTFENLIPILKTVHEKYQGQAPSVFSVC
Experiment: Selectivity interaction (KinomeScan (DiscoverX, competition-binding assay)) EUB0000178b TYK2

{"Mol": "CN1C(=O)c2sccc2N(C)c2nc(Nc3ccc(S(N)(=O)=O)cc3)ncc21", "Kd, nM": 610}

* * *

Biological target: Sodium-dependent dopamine transporter (Homo sapiens, UniProt Q01959)
Experiment: Selectivity interaction (GPCR panel (PDSP screen)) EUB0000741a SLC6A3

{"Compound": "CC(C)(C)OC(=O)N1CCCC1CNC1CCC(c2cc(F)ccc2F)(S(=O)(=O)c2ccc(Cl)cc2)CC1 (stereo unspecified)", "Target Or System": "Sodium-dependent dopamine transporter (Homo sapiens, UniProt Q01959)", "Ki": "> 10 µM"}

* * *

Biological target: Protein arginine N-methyltransferase 5 (Homo sapiens, UniProt O14744)
Sequence (O14744 whole entry): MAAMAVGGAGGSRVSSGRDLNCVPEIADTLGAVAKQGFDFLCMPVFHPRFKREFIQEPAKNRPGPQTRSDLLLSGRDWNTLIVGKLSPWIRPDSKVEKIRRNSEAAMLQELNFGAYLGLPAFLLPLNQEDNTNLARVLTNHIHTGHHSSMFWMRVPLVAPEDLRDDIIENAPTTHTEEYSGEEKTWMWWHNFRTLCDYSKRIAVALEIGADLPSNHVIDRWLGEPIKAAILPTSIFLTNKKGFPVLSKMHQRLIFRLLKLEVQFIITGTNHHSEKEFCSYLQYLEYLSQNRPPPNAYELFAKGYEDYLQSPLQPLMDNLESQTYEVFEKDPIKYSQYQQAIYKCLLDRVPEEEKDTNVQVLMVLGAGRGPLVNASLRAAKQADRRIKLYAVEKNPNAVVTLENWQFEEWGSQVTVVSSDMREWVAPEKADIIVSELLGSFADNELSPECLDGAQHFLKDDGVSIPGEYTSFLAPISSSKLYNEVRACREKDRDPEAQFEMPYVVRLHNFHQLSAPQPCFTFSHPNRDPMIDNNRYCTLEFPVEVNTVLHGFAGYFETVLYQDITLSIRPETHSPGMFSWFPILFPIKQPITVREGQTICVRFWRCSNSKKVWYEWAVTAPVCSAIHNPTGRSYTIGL
Test: Selectivity interaction (Methyltransferase panel (radioactive enzyme assay)) EUB0000216b PRMT5
Measured Property: IC50

{"Mol": "CC(C)N(CCCNC(=O)Nc1ccc(C(C)(C)C)cc1)C[C@H]1O[C@@H](n2cc(Br)c3c(N)ncnc32)[C@H](O)[C@@H]1O", "Measured Property": "IC50", "Result": "> 100 µM"}

* * *

Molecular target: YEATS domain-containing protein 2 (Homo sapiens, UniProt Q9ULM3)
Sequence (Q9ULM3 whole entry): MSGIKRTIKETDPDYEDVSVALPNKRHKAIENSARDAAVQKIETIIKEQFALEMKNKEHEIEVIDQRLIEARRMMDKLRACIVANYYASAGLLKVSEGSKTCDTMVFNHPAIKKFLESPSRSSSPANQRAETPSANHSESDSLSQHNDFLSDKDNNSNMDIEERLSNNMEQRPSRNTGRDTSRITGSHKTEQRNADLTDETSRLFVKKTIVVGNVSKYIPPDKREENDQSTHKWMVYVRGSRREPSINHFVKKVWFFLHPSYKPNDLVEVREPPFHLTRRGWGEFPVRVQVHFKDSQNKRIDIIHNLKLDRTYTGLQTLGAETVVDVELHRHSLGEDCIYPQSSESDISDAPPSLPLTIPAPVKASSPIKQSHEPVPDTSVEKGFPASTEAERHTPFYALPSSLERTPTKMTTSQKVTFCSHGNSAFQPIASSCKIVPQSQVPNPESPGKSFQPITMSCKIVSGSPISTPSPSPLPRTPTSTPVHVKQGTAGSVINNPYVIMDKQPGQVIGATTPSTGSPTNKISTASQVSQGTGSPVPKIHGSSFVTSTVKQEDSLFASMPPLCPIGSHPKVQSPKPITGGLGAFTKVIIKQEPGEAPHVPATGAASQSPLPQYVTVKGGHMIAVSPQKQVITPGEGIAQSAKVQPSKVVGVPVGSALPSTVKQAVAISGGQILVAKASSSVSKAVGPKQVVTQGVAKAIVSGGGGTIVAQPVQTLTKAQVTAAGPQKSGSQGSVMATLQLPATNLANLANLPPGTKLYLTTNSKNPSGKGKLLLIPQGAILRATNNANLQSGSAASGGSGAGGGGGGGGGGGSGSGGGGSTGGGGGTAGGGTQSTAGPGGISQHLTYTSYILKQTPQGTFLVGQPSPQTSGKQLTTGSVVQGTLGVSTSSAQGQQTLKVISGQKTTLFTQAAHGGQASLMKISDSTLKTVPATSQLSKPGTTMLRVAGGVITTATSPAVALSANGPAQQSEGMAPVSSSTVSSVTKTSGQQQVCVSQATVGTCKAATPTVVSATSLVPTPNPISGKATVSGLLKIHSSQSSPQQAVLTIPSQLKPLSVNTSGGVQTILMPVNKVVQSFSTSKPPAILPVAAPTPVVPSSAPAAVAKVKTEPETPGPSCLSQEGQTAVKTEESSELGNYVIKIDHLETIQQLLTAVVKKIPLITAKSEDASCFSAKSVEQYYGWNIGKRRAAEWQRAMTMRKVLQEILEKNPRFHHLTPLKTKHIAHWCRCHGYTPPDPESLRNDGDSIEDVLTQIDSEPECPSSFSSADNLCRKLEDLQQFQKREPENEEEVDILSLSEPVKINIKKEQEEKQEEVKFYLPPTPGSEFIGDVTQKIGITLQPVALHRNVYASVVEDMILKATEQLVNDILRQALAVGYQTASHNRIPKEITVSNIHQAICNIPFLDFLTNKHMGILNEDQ
Test: Selectivity interaction (HTRF-based inhibition assay) EUB0000732a YEATS2
Measured Property: IC50

{"Mol": "CN(C)C(=O)c1ccc(-c2cc(C(=O)N(C)C3CCCC3)no2)cc1O", "Target Or System": "YEATS domain-containing protein 2 (Homo sapiens, UniProt Q9ULM3)", "Measured Property": "IC50", "Result": "> 30 µM"}

All values here come from ChEMBL document CHEMBL5212743.
